Biological target: TEL-MTase fusion (nsp14 N7-MTase-TELSAM) (Severe acute respiratory syndrome coronavirus 2)
Assay: ITC binding to TEL-MTase fusion
property-measured: pKd
The scale used: pKd is minus the common logarithm of the concentration in molar units.

# lookup: Nc1ncnc2c1ncn2[C@@H]1O[C@H](CSCC[C@H](N)C(=O)O)[C@@H](O)[C@H]1O [SAH, S-adenosylhomocysteine] on TEL-MTase fusion (nsp14 N7-MTase-TELSAM) (Severe acute respiratory syndrome coronavirus 2), pKd = 5.30

====

Biological target: SARS-CoV-2 nsp14/nsp10 complex (Severe acute respiratory syndrome coronavirus 2, UniProt P0DTD1)
Test: ITC binding to full-length nsp14/nsp10 complex
property-measured: Kd

For record C[S+](CC[C@H](N)C(=O)[O-])C[C@H]1O[C@@H](n2cnc3c(N)ncnc32)[C@H](O)[C@@H]1O (some centres unmarked) the listed Kd is 5.7 µM

Now for another entry.
For record `Nc1ncnc2c1ncn2[C@@H]1O[C@H](CSCC[C@H](N)C(=O)O)[C@@H](O)[C@H]1O` the listed Kd is 0.3 µM

====

Target: SARS-CoV-2 MTase domain (residues 289–527) (Severe acute respiratory syndrome coronavirus 2)
Test: ITC binding to isolated MTase domain
property-measured: Kd

For record C[S+](CC[C@H](N)C(=O)[O-])C[C@H]1O[C@@H](n2cnc3c(N)ncnc32)[C@H](O)[C@@H]1O (stereo partly shown) the listed Kd is 22 to 25 µM
